Where do these numbers come from? They come from patent US20040248765A1.

System: MAC15A
experimental_protocol: In vitro cytotoxicity, MAC15A, 1 hour exposure
Type: cell-based
condition_description: Mus musculus
Where a SMILES comes first, the peptide text is derived from it. The star is where a group is joined. NH(CH2)3NH(1-anthraquinonyl) = O=C1c2ccccc2C(=O)c2c(NCCCN*)cccc21
attribute_measured: pIC50
// pIC50: -log10(molar conc.)

IN: Which pIC50 reading was recorded for the compound NCCCNc1cccc2c1C(=O)c1ccccc1C2=O.O=C(O)C(F)(F)F [Example 1b, trifluoroacetate] ?
OUT: 4.48

IN: Which pIC50 reading was recorded for the compound CC(C)C[C@H](NC(=O)CN)C(=O)N1CCC[C@H]1C(=O)NCCCNc1cccc2c1C(=O)c1ccccc1C2=O.O=C(O)C(F)(F)F [Example 4, trifluoroacetate] ?
OUT: 4.89

IN: Which pIC50 reading was recorded for the compound CC(C)C[C@H](NC(=O)CNC(=O)[C@@H](N)CC(C)C)C(=O)N1CCC[C@H]1C(=O)NCCCNc1cccc2c1C(=O)c1ccccc1C2=O.O=C(O)C(F)(F)F [Example 5, trifluoroacetate] (H-LGLP-{NH(CH2)3NH(1-anthraquinonyl)}) ?
OUT: 4.52

Moving on to the next compound.
IN: Which pIC50 reading was recorded for the compound CC(C)C[C@H](N)C(=O)N1CCC[C@H]1C(=O)NCCCNc1cccc2c1C(=O)c1ccccc1C2=O.O=C(O)C(F)(F)F [Example 3, trifluoroacetate] ?
OUT: 4.85
